Experimental Target: Sodium-dependent noradrenaline transporter (Homo sapiens)
Sequence (P23975 whole entry): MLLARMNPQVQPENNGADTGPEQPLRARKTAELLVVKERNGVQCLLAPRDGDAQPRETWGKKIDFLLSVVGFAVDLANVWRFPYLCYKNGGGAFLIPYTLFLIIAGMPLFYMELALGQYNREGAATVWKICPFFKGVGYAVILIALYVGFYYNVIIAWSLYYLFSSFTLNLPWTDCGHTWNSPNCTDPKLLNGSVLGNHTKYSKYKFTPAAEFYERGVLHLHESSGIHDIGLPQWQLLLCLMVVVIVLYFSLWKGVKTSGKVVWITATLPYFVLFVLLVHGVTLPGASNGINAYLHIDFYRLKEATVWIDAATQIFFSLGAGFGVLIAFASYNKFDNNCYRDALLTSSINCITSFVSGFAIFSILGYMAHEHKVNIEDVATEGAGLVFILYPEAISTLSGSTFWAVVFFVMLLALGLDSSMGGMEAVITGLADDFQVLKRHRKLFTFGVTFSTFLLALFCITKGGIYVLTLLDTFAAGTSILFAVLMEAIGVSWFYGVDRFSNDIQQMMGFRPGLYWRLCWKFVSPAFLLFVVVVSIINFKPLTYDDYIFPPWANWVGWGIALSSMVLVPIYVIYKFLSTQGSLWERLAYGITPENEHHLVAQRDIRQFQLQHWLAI
Property Name: IC50 (nM)
Note: unit nM is implicit; provide only the numeric part.

Exam item: Field: IC50 (Sodium-dependent noradrenaline transporter (Homo sapiens)). Entry: "Cc1c(C(=O)c2ccc(Cl)cc2)c2ccc(OC(F)(F)F)cc2n1Cc1cccc(O[C@H](C)C(=O)O)c1"
Marked response: 2160
